Give measured melting point for each item. Keep answers brief.

Record CCN(CC)CCC(=O)Nc1ccccc1-c1nc(NCCCN(C)C)c2ccccc2n1 [Compound 11c] , field melting point: 158 to 160 °C

Item: CN(C)CCCNc1nc(-c2ccccc2NC(=O)CCN2CCCC2)nc2ccccc12 [Compound 11b] | melting point: 163 to 165 °C

Kindly note the recorded melting point for CN(C)CCCNc1nc(-c2ccccc2NC(=O)CN2CCCCC2)nc2ccccc12 [Compound 10a] , which is 180 to 182 °C

Memo: CN(C)CCCNc1nc(-c2ccccc2NC(=O)CCCN2CCOCC2)nc2ccccc12 [Compound 12e] , reported melting point: 152 to 154 °C

Note to self: melting point recorded for CN(C)CCCNc1nc(-c2ccccc2NC(=O)CN2CCCC2)nc2ccccc12 [Compound 10b] was 174 to 175 °C

The recorded melting point for CN(C)CCCNc1nc(-c2ccccc2NC(=O)CCCN2CCCCC2)nc2ccccc12 [Compound 12a] is 159 to 160 °C

The molecule listed as CN(C)CCCNc1nc(-c2ccccc2NC(=O)CN2CCN(C)CC2)nc2ccccc12 [Compound 10d] shows melting point equal to 174 to 175 °C

# melting point of CN(C)CCCNc1nc(-c2ccccc2NC(=O)CCN2CCOCC2)nc2ccccc12 [Compound 11e] = 165 to 167 °C

get_value(item= CN(C)CCCNc1nc(-c2ccccc2NC(=O)CCCN2CCN(C)CC2)nc2ccccc12 [Compound 12d] , readout=melting point) returns 155 to 157 °C

Reported melting point ( CN(C)CCCNc1nc(-c2ccccc2NC(=O)CCN2CCN(C)CC2)nc2ccccc12 [Compound 11d] ) = 167 to 168 °C

Entry CN(C)CCCNc1nc(-c2ccccc2NC(=O)CCN2CCCCC2)nc2ccccc12 [Compound 11a] — recorded melting point = 178 to 179 °C

Measured melting point of CN(C)CCCNc1nc(-c2ccccc2NC(=O)CN2CCOCC2)nc2ccccc12 [Compound 10e] : 179 to 181 °C

====

ASSAY TEXT: MTT cytotoxicity assay, HUVEC
Format: cell-based
REPORTED CONDITIONS: human, HUVEC (human umbilical vein endothelial cells), mean of three independent assays
I'd appreciate it if you could supply IC50 at 48 h values for the items below.
The reply should be a number in µM, with the unit left off.

IC50 at 48 h for CN(C)CCCNc1nc(-c2ccccc2NC(=O)CCN2CCCC2)nc2ccccc12 [Compound 11b] is 46.3

Lab note: CN(C)CCCNc1nc(-c2ccccc2NC(=O)CCCN2CCOCC2)nc2ccccc12 [Compound 12e] gave IC50 at 48 h of 76.3

GET /value?item= CN(C)CCCNc1nc(-c2ccccc2NC(=O)CCCN2CCN(C)CC2)nc2ccccc12 [Compound 12d] &field=IC50 at 48 h returns 40.2

Reported IC50 at 48 h of CN(C)CCCNc1nc(-c2ccccc2NC(=O)CN2CCCCC2)nc2ccccc12 [Compound 10a] : 45.7

So, CCN(CC)CCC(=O)Nc1ccccc1-c1nc(NCCCN(C)C)c2ccccc2n1 [Compound 11c] ? Its IC50 at 48 h was 66.8

Recorded IC50 at 48 h (compound CN(C)CCCNc1nc(-c2ccccc2NC(=O)CCCN2CCCCC2)nc2ccccc12 [Compound 12a] ): 41.7
